Test system: 2008 (ovarian)
Experiment: Sulforhodamine B (SRB) cell growth inhibition assay
Settings: 72 hours, based on equivalent platinum loading, standard drugs on total molecular weight
ASSAY_ENDPOINT: GI50 (µM)
Write the answer as a number in µM, unit excluded.

- SUBSTANCE: "BHALys[Lys]32[α-Succ-Gly-Gly-Gly-amino malonic acid-O,N—Pt-diammine]32[ε-PEG2200]32 [Compound 3]"
  TESTED_SYSTEM: "2008 (ovarian)"
  UNIT_ANNOTATION: "µM"
  GI50: 69
- SUBSTANCE: "BHALys[Lys]32[α-Succ-Pro-Val-Gly-Leu-Ile-Gly-amino malonic acid N,O—Pt-diamine]32[ε-PEG1100]32 [Compound 8]"
  TESTED_SYSTEM: "2008 (ovarian)"
  UNIT_ANNOTATION: "µM"
  GI50: 18
- SUBSTANCE: "BHALys[Lys]32[α-Succ-Gly-Leu-Phe-Gly-amino malonic acid-Pt-1R,2R-(DACH)]32[ε-PEG2200]32 [Compound 5]"
  TESTED_SYSTEM: "2008 (ovarian)"
  UNIT_ANNOTATION: "µM"
  GI50: 2.5
- SUBSTANCE: "BHALys[Lys]32[α-Succ-Gly-Gly-Gly-amino malonic acid-O,O′—Pt-diammine]32[ε-PEG2200]32 [Compound 2]"
  TESTED_SYSTEM: "2008 (ovarian)"
  UNIT_ANNOTATION: "µM"
  GI50: 41
- SUBSTANCE: "BHALys[Lys]32[α-Succ-Gly-Leu-Phe-Gly-amino malonic acid-N,O—Pt-diammine]32[ε-PEG1100]32 [Compound 7]"
  TESTED_SYSTEM: "2008 (ovarian)"
  UNIT_ANNOTATION: "µM"
  GI50: 36

Could you share which GI50 value was measured for BHALys[Lys]32[α-Succ-Gly-Gly-Gly-amino malonic acid-N,O—Pt-1R,2R-(DACH)]32[ε-PEG1100]32 [Compound 4] ?
6.4

Now the substance BHALys[Lys]32[α-Succ-Gly-Gly-Gly-amino malonic acid-Pt-1R,2R-(DACH)]32[ε-PEG2200]32 [Compound 1]
4.5

Now the substance BHALys[Lys]32[α-Succ-Gly-Leu-Phe-Gly-amino malonic acid-N,O—Pt-1R,2R-(DACH)]32[ε-PEG1100]32 [Compound 6]
3.9

====

Test system: OE21 (head and neck)
Test: Sulforhodamine B (SRB) cell growth inhibition assay
Conditions: 72 hours, based on equivalent platinum loading, standard drugs on total molecular weight
ASSAY_ENDPOINT: GI50 (µM)
Write the answer as a number in µM, unit excluded.

- SUBSTANCE: "BHALys[Lys]32[α-Succ-Gly-Leu-Phe-Gly-amino malonic acid-N,O—Pt-1R,2R-(DACH)]32[ε-PEG1100]32 [Compound 6]"
  GI50 / µM: 14.5

Could you share which GI50 value was measured for BHALys[Lys]32[α-Succ-Pro-Val-Gly-Leu-Ile-Gly-amino malonic acid N,O—Pt-diamine]32[ε-PEG1100]32 [Compound 8] ?
26.5

Now the substance BHALys[Lys]32[α-Succ-Gly-Gly-Gly-amino malonic acid-N,O—Pt-1R,2R-(DACH)]32[ε-PEG1100]32 [Compound 4]
7.4

====

Test system: LoVo (colon)
Experiment: Sulforhodamine B (SRB) cell growth inhibition assay
Settings: 72 hours, based on equivalent platinum loading, standard drugs on total molecular weight
GI50 strictly less than 10 µM = 1 (yes). Otherwise 0 (no).

- SUBSTANCE: "BHALys[Lys]32[α-Succ-Gly-Gly-Gly-amino malonic acid-O,N—Pt-diammine]32[ε-PEG2200]32 [Compound 3]"
  GROUP: "0 (no)"
- SUBSTANCE: "BHALys[Lys]32[α-Succ-Gly-Leu-Phe-Gly-amino malonic acid-N,O—Pt-1R,2R-(DACH)]32[ε-PEG1100]32 [Compound 6]"
  GROUP: "1 (yes)"
- SUBSTANCE: "BHALys[Lys]32[α-Succ-Gly-Gly-Gly-amino malonic acid-Pt-1R,2R-(DACH)]32[ε-PEG2200]32 [Compound 1]"
  GROUP: "1 (yes)"
- SUBSTANCE: "BHALys[Lys]32[α-Succ-Pro-Val-Gly-Leu-Ile-Gly-amino malonic acid N,O—Pt-diamine]32[ε-PEG1100]32 [Compound 8]"
  GROUP: "0 (no)"

Input BHALys[Lys]32[α-Succ-Gly-Gly-Gly-amino malonic acid-N,O—Pt-1R,2R-(DACH)]32[ε-PEG1100]32 [Compound 4] ; condition: GI50 strictly below 10 µM. Does it hold?
0 (no)

Now the substance BHALys[Lys]32[α-Succ-Gly-Leu-Phe-Gly-amino malonic acid-N,O—Pt-diammine]32[ε-PEG1100]32 [Compound 7]
0 (no)

Now the substance BHALys[Lys]32[α-Succ-Gly-Gly-Gly-amino malonic acid-O,O′—Pt-diammine]32[ε-PEG2200]32 [Compound 2]
0 (no)

Now the substance BHALys[Lys]32[α-Succ-Gly-Leu-Phe-Gly-amino malonic acid-Pt-1R,2R-(DACH)]32[ε-PEG2200]32 [Compound 5]
1 (yes)

====

Test system: FADU (head and neck)
Assay: Sulforhodamine B (SRB) cell growth inhibition assay
Conditions: 72 hours, based on equivalent platinum loading, standard drugs on total molecular weight
GI50 strictly less than 10 µM = TRUE. Otherwise FALSE.

- SUBSTANCE: "BHALys[Lys]32[α-Succ-Gly-Leu-Phe-Gly-amino malonic acid-Pt-1R,2R-(DACH)]32[ε-PEG2200]32 [Compound 5]"
  GROUP: "TRUE"
- SUBSTANCE: "BHALys[Lys]32[α-Succ-Pro-Val-Gly-Leu-Ile-Gly-amino malonic acid N,O—Pt-diamine]32[ε-PEG1100]32 [Compound 8]"
  GROUP: "FALSE"

Input BHALys[Lys]32[α-Succ-Gly-Leu-Phe-Gly-amino malonic acid-N,O—Pt-1R,2R-(DACH)]32[ε-PEG1100]32 [Compound 6] ; condition: GI50 strictly below 10 µM. Does it hold?
FALSE

Now the substance BHALys[Lys]32[α-Succ-Gly-Gly-Gly-amino malonic acid-Pt-1R,2R-(DACH)]32[ε-PEG2200]32 [Compound 1]
TRUE

====

Test system: SW620 (colon)
Experiment: Sulforhodamine B (SRB) cell growth inhibition assay
Conditions: 72 hours, based on equivalent platinum loading, standard drugs on total molecular weight
ASSAY_ENDPOINT: log10 of GI50 (log10 of the value in µM)
Would you kindly interpret these values as log10 of GI50 expressed in µM?

Solved cases below.
- SUBSTANCE: "BHALys[Lys]32[α-Succ-Gly-Gly-Gly-amino malonic acid-Pt-1R,2R-(DACH)]32[ε-PEG2200]32 [Compound 1]"
  ASSAY_ENDPOINT: "log10 of GI50"
  NUMERIC_RESULT: 0.54
- SUBSTANCE: "BHALys[Lys]32[α-Succ-Gly-Gly-Gly-amino malonic acid-N,O—Pt-1R,2R-(DACH)]32[ε-PEG1100]32 [Compound 4]"
  ASSAY_ENDPOINT: "log10 of GI50"
  NUMERIC_RESULT: 0.83
- SUBSTANCE: "BHALys[Lys]32[α-Succ-Gly-Leu-Phe-Gly-amino malonic acid-N,O—Pt-diammine]32[ε-PEG1100]32 [Compound 7]"
  ASSAY_ENDPOINT: "log10 of GI50"
  NUMERIC_RESULT: 2.23
- SUBSTANCE: "BHALys[Lys]32[α-Succ-Pro-Val-Gly-Leu-Ile-Gly-amino malonic acid N,O—Pt-diamine]32[ε-PEG1100]32 [Compound 8]"
  ASSAY_ENDPOINT: "log10 of GI50"
  NUMERIC_RESULT: 1.80
- SUBSTANCE: "BHALys[Lys]32[α-Succ-Gly-Leu-Phe-Gly-amino malonic acid-Pt-1R,2R-(DACH)]32[ε-PEG2200]32 [Compound 5]"
  ASSAY_ENDPOINT: "log10 of GI50"
  NUMERIC_RESULT: 0.18

Now let's try a different one.
Could you share which log10 of GI50 value was measured for BHALys[Lys]32[α-Succ-Gly-Leu-Phe-Gly-amino malonic acid-N,O—Pt-1R,2R-(DACH)]32[ε-PEG1100]32 [Compound 6] ?
0.62

====

Test system: FADU (head and neck)
Assay: Sulforhodamine B (SRB) cell growth inhibition assay
Conditions: 72 hours, based on equivalent platinum loading, standard drugs on total molecular weight
Experimental: Cell growth inhibition was determined using the Sulforhodamine B (SRB) assay (Voigt W., “Sulforhodamine B assay and chemosensitivity” Methods Mol. Med., 2005, 110, 39-48) against various cancer cell lines after 72 hours. All solutions were prepared in saline and were stored at −20° C. All values were based on equivalent platinum loading except standard drugs which were calculated on total molecular weight. The results are shown in Table 1 in the micromolar range.
ASSAY_ENDPOINT: GI50 (µM)
Write the answer as a number in µM, unit excluded.

Solved cases below.
- SUBSTANCE: "BHALys[Lys]32[α-Succ-Gly-Gly-Gly-amino malonic acid-N,O—Pt-1R,2R-(DACH)]32[ε-PEG1100]32 [Compound 4]"
  ASSAY_ENDPOINT: "GI50"
  NUMERIC_RESULT: 9.5
- SUBSTANCE: "BHALys[Lys]32[α-Succ-Gly-Leu-Phe-Gly-amino malonic acid-N,O—Pt-diammine]32[ε-PEG1100]32 [Compound 7]"
  ASSAY_ENDPOINT: "GI50"
  NUMERIC_RESULT: 150

Now let's try a different one.
Could you share which GI50 value was measured for BHALys[Lys]32[α-Succ-Gly-Gly-Gly-amino malonic acid-O,O′—Pt-diammine]32[ε-PEG2200]32 [Compound 2] ?
200
